# System tested: T1, extracellular domain of human BCMA (human, UniProt Q02223 1-54)
# T1 construct: amine-linked to Octet AR2G tips; also called hsBCMA; BCMA (human)
# T1 sequence: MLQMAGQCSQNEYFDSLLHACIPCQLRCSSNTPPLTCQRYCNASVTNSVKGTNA
# Experimental details: Octet BLI; Fab 200 nM
pKd: −log10 of the molar value.
The following binders are shown together with reported pKd values.

>  <Binder>
AB200-(2Vk31)_R2-VH-v42 (Fab, V domains shown) VH: QVQLVQSGAEVKKPGSSVKVSCKASGGTFTNYWIHWVRQAPGQGLEWMGGTYRIHSDTYYNQKYKSRVTITADKSTSTAYMELSSLRSEDTAVYYCARGAIFHGYDVIDNWGQGTLVTVSS VL: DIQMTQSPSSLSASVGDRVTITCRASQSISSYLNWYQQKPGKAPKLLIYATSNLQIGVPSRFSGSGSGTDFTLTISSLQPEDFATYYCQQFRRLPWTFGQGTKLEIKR

>  <pKd>
8.36

$$$$
>  <Binder>
AB200-(2Vk31)_R2-VH-v17 (Fab, V domains shown) VH: QVQLVQSGAEVKKPGSSVKVSCKASGGSFSNYWIHWVRQAPGQGLEWMGATYRSQSDTYYAQKFKSRVTITADKSTSTAYMELSSLRSEDTAVYYCARGAIFHGYDVIDNWGQGTLVTVSS VL: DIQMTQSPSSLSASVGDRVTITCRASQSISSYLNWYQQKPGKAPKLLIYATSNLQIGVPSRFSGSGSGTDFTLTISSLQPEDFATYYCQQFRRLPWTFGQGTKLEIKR

>  <pKd>
8.24

$$$$
